# assayedTarget: Aldo-keto reductase family 1 member C3 (Homo sapiens, UniProt P42330)
# Sequence (P42330 whole entry): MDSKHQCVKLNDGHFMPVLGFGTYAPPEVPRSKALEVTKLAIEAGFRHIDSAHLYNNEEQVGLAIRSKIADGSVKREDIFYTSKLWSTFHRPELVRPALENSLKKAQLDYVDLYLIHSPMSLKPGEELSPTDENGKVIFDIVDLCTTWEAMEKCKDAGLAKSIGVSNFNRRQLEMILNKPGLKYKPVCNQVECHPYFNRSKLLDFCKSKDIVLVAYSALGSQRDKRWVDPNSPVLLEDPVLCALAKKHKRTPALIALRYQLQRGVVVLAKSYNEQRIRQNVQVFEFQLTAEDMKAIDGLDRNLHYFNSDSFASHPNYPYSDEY
# experimentNotes: Inhibition of human 17beta HSD5 in HEK cells
# Format: cell-based, HEK293
Consider the following molecules; for each one, report its IC50.
One number for each entry, in nM.

Consider the reported IC50 for these molecules:
CC1(C)CC[C@@]2(CC[C@H]3[C@@H]4CCc5cc(C(N)=O)ccc5[C@H]4CC[C@@]32C)OC1=O    3.2
COCCOc1cc2c(cc1C#N)[C@H]1CC[C@@]3(C)[C@@H](CC[C@@]34CCC(C)(C)C(=O)O4)[C@@H]1CC2    13

Consider the record given below.
Reported IC50 of COCCOc1cc2c(cc1OC(N)=O)[C@H]1CC[C@@]3(C)[C@@H](CC[C@@]34CCC(C)(C)C(=O)O4)[C@@H]1CC2 : 9.5

---

# assayedTarget: Aldo-keto reductase family 1 member C3 (Homo sapiens, UniProt P42330)
# experimentNotes: Inhibition of human 17beta HSD5 mediated conversion of testosterone to delta-4-androstene-3,17-dione
metricName: Ki (nM)
One number for each entry, in nM.

Notebook: CC1(C)CC[C@@]2(CC[C@H]3[C@@H]4CCc5cc(C(N)=O)ccc5[C@H]4CC[C@@]32C)OC1=O , Ki read as 6.9
